test: Development toxicity testing on medaka embryos; conditions: medaka, in vivo
Each entry below lists one item and its recorded LC50 at 48 h value.

Which measured LC50 at 48 h value corresponds to Oc1c(Br)cc(Br)cc1-c1[nH]c(Br)c(Br)c1Br [KIN-43] ?
3000 nM

Now the same for Oc1cc(F)c(F)c2c1[nH]c1ccc(F)cc12 [KIN-93]
> 50000 nM

###

Target: Dictyostelium myosin-2 (Dictyostelium discoideum, UniProt P08799, C312Y/S249N)
Construct: comprising amino acids 1-698, 1-765, and 1-839 respectively; made in house
Sequence (P08799 1-765 S249N/C312Y): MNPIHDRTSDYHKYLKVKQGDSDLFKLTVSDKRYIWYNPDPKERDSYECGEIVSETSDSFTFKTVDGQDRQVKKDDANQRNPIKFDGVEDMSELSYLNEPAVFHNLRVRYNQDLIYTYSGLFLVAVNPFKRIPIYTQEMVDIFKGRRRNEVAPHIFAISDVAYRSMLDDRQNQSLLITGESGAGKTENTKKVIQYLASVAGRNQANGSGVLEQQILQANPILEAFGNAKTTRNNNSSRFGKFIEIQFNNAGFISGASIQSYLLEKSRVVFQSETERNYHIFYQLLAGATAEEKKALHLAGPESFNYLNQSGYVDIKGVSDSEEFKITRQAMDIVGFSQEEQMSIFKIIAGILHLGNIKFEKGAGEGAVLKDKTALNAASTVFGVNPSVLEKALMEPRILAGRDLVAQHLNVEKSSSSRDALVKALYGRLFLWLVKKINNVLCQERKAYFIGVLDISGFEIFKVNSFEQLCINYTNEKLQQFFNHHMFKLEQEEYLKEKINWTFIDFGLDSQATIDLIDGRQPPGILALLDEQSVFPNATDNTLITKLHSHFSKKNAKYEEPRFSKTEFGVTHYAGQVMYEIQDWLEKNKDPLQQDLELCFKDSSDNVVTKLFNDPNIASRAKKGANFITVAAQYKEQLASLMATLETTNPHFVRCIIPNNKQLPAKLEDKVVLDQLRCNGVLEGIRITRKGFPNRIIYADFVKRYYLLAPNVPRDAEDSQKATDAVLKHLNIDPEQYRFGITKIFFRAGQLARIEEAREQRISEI
Test: Basal ATPase activity, Dictyostelium myosin-2
Assay type: biochemical
Conditions: at concentrations >50 μM
measure: pIC50
In plain terms, pIC50 is the concentration in mol/L turned into minus its base-10 logarithm.

Need pIC50 of Oc1c(F)cc(F)cc1-c1[nH]c(Br)c(Br)c1Br [KIN-74] , thanks.
4.05

###

molecular target: chicken myosin-5a (Gallus gallus, UniProt Q02440); assay: Actin-activated ATPase activity (NADH-coupled assay), chicken myosin-5a
Sequence (Q02440 1-764): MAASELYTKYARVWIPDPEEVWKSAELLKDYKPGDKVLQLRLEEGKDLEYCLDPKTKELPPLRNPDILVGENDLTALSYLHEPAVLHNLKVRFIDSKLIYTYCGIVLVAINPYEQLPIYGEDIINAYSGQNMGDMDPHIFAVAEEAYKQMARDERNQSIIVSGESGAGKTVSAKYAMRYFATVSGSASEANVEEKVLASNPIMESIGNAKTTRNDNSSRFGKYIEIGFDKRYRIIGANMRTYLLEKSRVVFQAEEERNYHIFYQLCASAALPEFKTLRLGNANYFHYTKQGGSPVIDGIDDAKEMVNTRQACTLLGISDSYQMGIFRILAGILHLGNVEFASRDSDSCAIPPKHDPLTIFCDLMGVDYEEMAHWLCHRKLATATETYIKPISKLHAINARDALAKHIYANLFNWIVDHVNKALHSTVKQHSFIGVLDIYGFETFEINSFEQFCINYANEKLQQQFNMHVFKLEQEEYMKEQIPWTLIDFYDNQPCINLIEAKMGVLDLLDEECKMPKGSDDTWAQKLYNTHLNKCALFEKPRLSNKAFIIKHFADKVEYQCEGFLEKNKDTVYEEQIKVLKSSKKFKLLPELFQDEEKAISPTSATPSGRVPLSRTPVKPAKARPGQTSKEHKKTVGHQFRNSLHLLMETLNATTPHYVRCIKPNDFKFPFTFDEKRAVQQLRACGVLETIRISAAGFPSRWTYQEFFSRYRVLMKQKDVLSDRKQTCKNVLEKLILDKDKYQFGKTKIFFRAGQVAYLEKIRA
measure: Ki (nM)
The response must be a number in nM with no trailing unit.

Notebook: pull reported Ki for chicken myosin-5a (Gallus gallus, UniProt Q02440), entry "Oc1c(Br)cc(Br)cc1-c1[nH]c(Br)c(Br)c1Br"
1190

###

biological target: rabbit skeletal myosin-2 heavy meromyosin (HMM); test: Actin-activated ATPase activity, rabbit skeletal myosin-2 HMM; conditions: 0 to 150 μM PBP, hyperbolic fit; read-out: Ki, half-maximal inhibition of actin-activated ATPase activity
measure: pKi
# reply with the number alone; pKi is -log10 of concentration in mol/L

Consider the compound shown here: Oc1c(Br)cc(Br)cc1-c1[nH]c(Br)c(Br)c1Br [KIN-43] What is its recorded pKi?
4.64

###

target: Dictyostelium myosin-2 (Dictyostelium discoideum, UniProt P08799, C312Y/S249N); construct: comprising amino acids 1-698, 1-765, and 1-839 respectively; assay: Actin-activated ATPase activity (NADH-coupled assay), Dictyostelium myosin-2
measure: pKi
A value of pKi is the negative decimal logarithm of a concentration given in moles per litre.

Fill blank: measured pKi of the compound "Oc1c(Br)cc(Br)cc1-c1[nH]c(Br)c(Br)c1Br" is ____.
4.62

The reported numbers originate from patent US20110105554A1.
